Assay: Elimination half life in beagle dog at 5 mg/kg, iv administered for 30 mins
Assay type: ADME, organism-based, Canis lupus familiaris
Parameters: dose 5 mg/kg, dosed compound name [14C]LY2090314, route intravenous
Conditions: in vivo, read-out: beta t1/2 (converted)
Measured Attribute: half-life
Quick note: number first, unit second.

Summary for this molecule, O=C1NC(=O)C(c2cnc3ccccn23)=C1c1cn2c3c(cc(F)cc13)CN(C(=O)N1CCCCC1)CC2 : half-life is 39.7 min

----------
Experiment: Clearance in cancer patient at 120 mg for 60 mins treated 1/8 cycle/day
Assay type: ADME, organism-based
Parameters: dosed compound name LY2090314
Conditions: human, in vivo
Measured Attribute: clearance (mL/min)
One number for each entry, in mL/min.

For this molecule ( O=C1NC(=O)C(c2cnc3ccccn23)=C1c1cn2c3c(cc(F)cc13)CN(C(=O)N1CCCCC1)CC2 [LY-2090314] ), measured clearance is 638
